target: human GRP receptor (human, UniProt P30550 1-384); experiment: cell-based or functional assay
Sequence (P30550 whole entry): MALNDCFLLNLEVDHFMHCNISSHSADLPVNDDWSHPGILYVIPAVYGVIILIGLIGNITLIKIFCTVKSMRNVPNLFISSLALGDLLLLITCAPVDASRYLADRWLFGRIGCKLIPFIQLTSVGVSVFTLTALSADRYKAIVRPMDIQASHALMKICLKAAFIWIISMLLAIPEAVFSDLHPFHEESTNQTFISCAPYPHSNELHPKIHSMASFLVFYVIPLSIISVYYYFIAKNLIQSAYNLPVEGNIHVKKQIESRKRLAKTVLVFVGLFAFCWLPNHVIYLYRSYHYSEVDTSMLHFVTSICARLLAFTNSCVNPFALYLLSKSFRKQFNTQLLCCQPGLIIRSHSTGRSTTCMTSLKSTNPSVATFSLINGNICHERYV
Starred links: 1 amine or outer side, 2 acyl side, 3 side chain; linkers in the order of their positions; H or OH if unused. Non-standard residues stand in square brackets, D forms with d. *: point of attachment. Trp(7-Me) = Cc1cccc2c(C[C@H](N)C(=O)O)c[nH]c12; C20 diacid = O=C(O)CCCCCCCCCCCCCCCCCCC(=O)*; γGlu = O=C(O)[C@H](CCC(=O)[*:2])N[*:1]; Nle = CCCC[C@H](N)C(=O)O; AEEA = NCCOCCOCC(=O)O; βAla = NCCC(=O)O
endpoint: hIP1 GRPR EC50 (nM)
Give bare numbers, in nM.

Please indicate hIP1 GRPR EC50 recorded for {C20 diacid}-[γGlu]E[AEEA][AEEA]SGEH[Trp(7-Me)]AV[βAla]HL[Nle]-NH2 (SMILES CCCC[C@H](NC(=O)[C@H](CC(C)C)NC(=O)[C@H](Cc1c[nH]cn1)NC(=O)CCNC(=O)[C@@H](NC(=O)[C@H](C)NC(=O)[C@H](Cc1c[nH]c2c(C)cccc12)NC(=O)[C@H](Cc1c[nH]cn1)NC(=O)[C@H](CCC(=O)O)NC(=O)CNC(=O)[C@H](CO)NC(=O)COCCOCCNC(=O)COCCOCCNC(=O)[C@H](CCC(=O)O)NC(=O)CC[C@H](NC(=O)CCCCCCCCCCCCCCCCCCC(=O)O)C(=O)O)C(C)C)C(N)=O) [Peptide 255]
6.9
